As shown below, each of these molecules has a reported cytotoxicity at 70.5 h value.
EXPERIMENT_DESCRIPTION: Human HepG2 cell viability assay in 384 well format
Type: toxicity, cell-based
Set-up: dose 125 nL, time 70.5 hour; concentration not given beside the values
CONDITIONS_USED: HepG2 cells, read-out: Inhibition
PROPERTY_MEASURED: cytotoxicity at 70.5 h (%)

>>> df
                                    molecule       property_measured  numeric_result
 0  COc1cccc2c1OCC(CNC(=O)CSc1ccccn1)C2 (configuration not stated)  cytotoxicity at 70.5 h           -6.38
 1                 CCSCCn1cc(-c2ncc[nH]2)nn1  cytotoxicity at 70.5 h           -17.4
 2  CC(C)c1cc(N2CCC(NS(C)(=O)=O)CC2)n2nccc2n1  cytotoxicity at 70.5 h           -2.38
 3  COC(=O)c1ccc(N2CCN(C(=O)c3cc(C)on3)C(C)C2)cc1 (configuration not stated)  cytotoxicity at 70.5 h           -15.3
 4  CCn1cc(NC(=O)NCC(C)N(C)C2CC2)cn1 (configuration not stated)  cytotoxicity at 70.5 h           -4.71
 5  O=S(=O)(NCC1COCc2c(-c3ccncc3)nnn2C1)C1CC1 (configuration not stated)  cytotoxicity at 70.5 h           -3.99
 6    O=C1[C@H]2CN(c3cnccn3)C[C@H]2CN1CC1CC1  cytotoxicity at 70.5 h           -12.5
 7        COc1ccc(NC(=O)Cn2nc(C)ccc2=O)cc1OC  cytotoxicity at 70.5 h           0.232
 8           CC(=O)N1CCCN(Cc2ccon2)c2ccccc21  cytotoxicity at 70.5 h            18.6
 9  CCOCC(O)CN1CCN(C(=O)c2ccc(OC)cc2F)CC1 (configuration not stated)  cytotoxicity at 70.5 h           -21.8
10       Cc1cccc(CN(C(=O)NCc2ccccn2)C2CC2)c1  cytotoxicity at 70.5 h           -8.28
11  Cc1cc(N(C)C)cc(C2CCN(S(=O)(=O)c3cccs3)C2)n1 (configuration not stated)  cytotoxicity at 70.5 h            14.4
